- system name: MMP-8 (Homo sapiens, UniProt P22894)
- Sequence (P22894 100-262 limits assumed): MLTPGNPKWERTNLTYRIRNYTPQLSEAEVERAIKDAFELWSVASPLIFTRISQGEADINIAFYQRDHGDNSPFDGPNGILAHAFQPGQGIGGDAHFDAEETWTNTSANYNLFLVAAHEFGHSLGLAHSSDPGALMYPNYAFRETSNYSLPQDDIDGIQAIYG
# pIC50 per record follows
Kindly note that pIC50 refers to -log10 of the concentration in mol/L and answer with the value alone.

Worked set:
input smiles	pIC50
O=C(Cc1ccccc1)Nc1ccc2nc(NC(P(=O)(O)O)P(=O)(O)O)sc2c1	4.97
O=P(O)(O)C(Nc1nc2ccccc2s1)P(=O)(O)O	4.07
O=C(Nc1ccc2nc(NC(P(=O)(O)O)P(=O)(O)O)sc2c1)c1ccc([N+](=O)[O-])cc1	5.17

In: So what pIC50 did O=[N+]([O-])c1ccc2nc(NC(P(=O)(O)O)P(=O)(O)O)sc2c1 get with MMP-8 (Homo sapiens, UniProt P22894)?
Out: 5.05

In: Identify the measured pIC50 of O=P(O)(O)C(CNc1nc2ccc(Cl)cc2s1)P(=O)(O)O for MMP-8 (Homo sapiens, UniProt P22894).
Out: 4.67

###

- system name: MMP-13 (Homo sapiens, UniProt P45452)
- Construct: Catalytic domains of MMP-2, -8, -9, and -13 were obtained from Enzo Life Sciences; purchased Enzo Life Sciences
- measurement protocol: fluorometric MMP inhibition assay, MMP-13 catalytic domain
- Format: biochemical
- experimental parameters: ratio of IC50 values of Table 2
Catalogue of Selectivity MMP-9/13 values

molecule	parameter measured	observed
CC(N)C(=O)Nc1ccc2nc(NC(P(=O)(O)O)P(=O)(O)O)sc2c1 (stereo not drawn)	Selectivity MMP-9/13	>1.62
O=P(O)(O)C(Nc1nc2ccccc2s1)P(=O)(O)O	Selectivity MMP-9/13	>15.4

In: For the molecule O=P(O)(O)C(NS(=O)(=O)c1ccc(-c2ccccc2)cc1)P(=O)(O)O [ML115, reference compound] , what Selectivity MMP-9/13 is on record?
Out: >166.67

###

pIC50 overview
- system name: MMP-9 (Homo sapiens, UniProt P14780)
- Construct: Catalytic domains of MMP-2, -8, -9, and -13 were obtained from Enzo Life Sciences; purchased Enzo Life Sciences
- Sequence (P14780 107-444 limits assumed): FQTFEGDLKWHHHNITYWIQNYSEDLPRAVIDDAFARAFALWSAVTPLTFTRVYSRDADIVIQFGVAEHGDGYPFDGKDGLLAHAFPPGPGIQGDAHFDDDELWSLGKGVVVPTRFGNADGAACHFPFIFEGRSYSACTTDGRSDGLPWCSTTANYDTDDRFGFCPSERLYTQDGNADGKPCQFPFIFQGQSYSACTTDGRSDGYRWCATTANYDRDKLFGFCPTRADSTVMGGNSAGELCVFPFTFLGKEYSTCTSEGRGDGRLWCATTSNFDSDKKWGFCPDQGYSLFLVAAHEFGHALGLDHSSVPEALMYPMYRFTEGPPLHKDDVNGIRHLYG
- measurement protocol: fluorometric MMP inhibition assay, MMP-9 catalytic domain
- Format: biochemical
- experimental parameters: catalytic domain, fluorometric assay, mean ± SEM of at least 3 experiments
pIC50: −log10 of the molar value.

In: Given the molecule O=P(O)(O)C(Nc1nc2ccccc2s1)P(=O)(O)O [Compound 1] , what is its reported pIC50?
Out: < 4.00

In: Report pIC50 for O=C(Nc1ccc2nc(NC(P(=O)(O)O)P(=O)(O)O)sc2c1)c1ccc(Br)cc1 [Compound 6] please.
Out: < 4.00

In: Entry under review: CC(N)C(=O)Nc1ccc2nc(NC(P(=O)(O)O)P(=O)(O)O)sc2c1 (stereo not drawn) [Compound 11] . Reported pIC50?
Out: < 4.00
